Data provenance is patent US12473282B2.

- Test description: Jurkat reporter gene cellular assay
- Format: cell-based
- Experimental conditions: Homo sapiens; Jurkat/NF-κB-luc/PD1 + Raji-PD-L1 coculture, OKT3 1 μg/mL, 6 hrs, activation fold; read-out: Cell Activity EC50
Quick reference: EC50 of the listed items.

>  <Smiles text>
COc1cc(/C(F)=C/c2cccc(-c3cccc(NC(=O)c4nc5c(n4C)CCN(CCC46CCC(C(=O)O)(CC4)C6)C5)c3Cl)c2Cl)ncc1CN[C@H](CO)C(=O)O

>  <EC50 (nM)>
178

$$$$
>  <Smiles text>
CC(C)N1CCc2c(nc(/C(F)=C/c3cccc(-c4cccc(NC(=O)c5nc6c(n5C)CCN(CCC57CCC(C(=O)O)(CC5)C7)C6)c4Cl)c3Cl)n2C)C1

>  <EC50 (nM)>
97.5

$$$$
>  <Smiles text>
COc1cc(/C(F)=C/c2cccc(-c3cccc(NC(=O)c4nc5c(n4C)CCN(C[C@H]4CC[C@H](C(=O)O)CC4)C5)c3C)c2C)ncc1CNC[C@@H]1CCC(=O)N1

>  <EC50 (nM)>
464

$$$$
>  <Smiles text>
COc1cc(/C(F)=C/c2cccc(-c3cccc(NC(=O)c4nc5c(n4C)CCN(CCC46CCC(C(=O)O)(CC4)C6)C5)c3Cl)c2Cl)ncc1CN1CCC2(CCC2)C1

>  <EC50 (nM)>
149

$$$$
>  <Smiles text>
COc1cc(/C(F)=C/c2cccc(-c3cccc(NC(=O)c4nc5c(n4C)CCN(CCC46CCC(C(=O)O)(CC4)C6)C5)c3Cl)c2Cl)ncc1CN1CC[C@](C)(C(=O)O)C1

>  <EC50 (nM)>
98.1

$$$$
